Molecular target: Casein kinase II (Homo sapiens, UniProt P19784+P67870+P68400)
Sequence (P67870 whole entry): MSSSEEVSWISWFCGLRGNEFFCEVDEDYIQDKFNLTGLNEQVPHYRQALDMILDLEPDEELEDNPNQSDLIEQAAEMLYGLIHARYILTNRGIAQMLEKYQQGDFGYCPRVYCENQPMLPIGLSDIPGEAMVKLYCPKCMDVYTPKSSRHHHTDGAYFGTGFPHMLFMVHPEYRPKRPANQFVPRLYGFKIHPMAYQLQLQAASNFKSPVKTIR
Sequence (P68400 whole entry): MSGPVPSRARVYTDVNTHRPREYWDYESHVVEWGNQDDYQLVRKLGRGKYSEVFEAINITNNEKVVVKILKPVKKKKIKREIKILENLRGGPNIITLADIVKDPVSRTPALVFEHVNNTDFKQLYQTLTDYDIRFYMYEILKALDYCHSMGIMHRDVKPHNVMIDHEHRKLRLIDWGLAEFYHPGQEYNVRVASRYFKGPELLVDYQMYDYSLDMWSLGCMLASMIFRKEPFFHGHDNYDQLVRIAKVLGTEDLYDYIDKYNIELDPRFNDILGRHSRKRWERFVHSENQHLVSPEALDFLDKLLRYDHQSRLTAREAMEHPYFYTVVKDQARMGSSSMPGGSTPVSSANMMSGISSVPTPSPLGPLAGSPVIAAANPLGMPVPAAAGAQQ
Sequence (P19784 whole entry): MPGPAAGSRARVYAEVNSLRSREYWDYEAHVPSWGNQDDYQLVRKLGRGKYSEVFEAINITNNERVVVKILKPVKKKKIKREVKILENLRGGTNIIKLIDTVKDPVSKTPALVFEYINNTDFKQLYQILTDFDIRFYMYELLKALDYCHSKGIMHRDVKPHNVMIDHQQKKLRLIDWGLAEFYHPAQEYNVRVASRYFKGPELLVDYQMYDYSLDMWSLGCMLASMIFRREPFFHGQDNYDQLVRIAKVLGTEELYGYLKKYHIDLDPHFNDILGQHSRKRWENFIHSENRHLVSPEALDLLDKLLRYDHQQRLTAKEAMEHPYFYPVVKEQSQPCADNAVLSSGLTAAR
Assay: Inhibition of human recombinant CK2 expressed in Escherichia coli BL21(DE3) using RRRDDDSDDD as substrate after 15 mins by capillary electrophoretic analysis
quantityKind: IC50 (nM)

C#Cc1cccc(Nc2nc3cc(C(=O)O)ccc3n3cc(-c4cccnc4)cc23)c1 :: 890

(1) C#Cc1cccc(Nc2ccc3c(c2)nc(C(=O)O)c2cccn23)c1
(2) C#Cc1cccc(Nc2nc3ccccc3n3ccc(C(=O)O)c23)c1
Q. Looking at recorded values for IC50, does 1 or 2 come in lower? Indicate which entry you chose by stating its label.
A. 2
(2: 134 nM, 1: 850 nM)
